test system: MS2 coat protein; experiment: apparent KD of MS2 coat protein; designed switch direction (-1 OFF switch, 1 ON switch): -1; higher = weaker reporter binding; conditions: input ligand: none
I would appreciate it if you labelled entries Met when apparent KD of MS2 coat protein is 0.1 µM or higher, otherwise Not met.

Answered examples (4):
UAUUAGCAAGCGAGAUCCCACAUGAGGAUCACCCAUGUAAUAAAAGCAUCCAGAAUUACUGGGUGCGCUCGUCUUAU [Winner reversed engineered 14] (Eterna round: R97, puzzle: Sensor, turn-off variant 1): Not met
CCGUUGGUAGGAUAUCCAACGAUAUACUUGAGGAUCACCCAAGUCCGUAGGGCGUUCGAAGGAGAAGGGCUGAUGG [Zaisaat] (Eterna round: R97, puzzle: Exclusion 5): Met
UUGUUACAUGAGGAUCACCCAUGUGAGGAUAUGGUUCAGUACUGUAAUGUAAAGUACUCCAGAAGGCACAUGUU [1st #28] (Eterna round: R97, puzzle: Exclusion 1): Met
CUCGUGCAGCUUUGCUGUACGAGUACAUGAGGAUCACCCAUGUAGGAUAUGGUACGCUUUGCGUGCUAGAAGGACGUGUGUAUG [JL EXNG3 1.39] (Eterna round: R96, puzzle: Exclusion NG 3): Not met

Decide: is the reported value of apparent KD of MS2 coat protein for AAUAACAGAGGAUAUACUGUUUUAUGUGUUUGUUGUUUUGAACAUGAGGAUCACCCAUGUAGAAGGCUGAUUAA [JMF 53] (Eterna round: R96, puzzle: Exclusion 2) equal to or greater than 0.1 µM?
Not met

----------
system: MS2 coat protein; assay: apparent KD of MS2 coat protein; higher = weaker reporter binding; conditions: Eterna round: R107; input ligand: theophylline 20 uM
assay.readout: apparent KD of MS2 coat protein (nM)
Give just the number in nM; leave the unit off.

Solved cases below.
AAACAUGAGGAUCACCCAUGUUCAAUAGAUACCAGUGAUACGGUGCACCCUUGGCAGCUGUUGCUGAGUGAUGGUUCCCUCGGUA [#24 SameState-TheophyllineA]: 32.9
UUACAUGAGGAUCACCCAUGUCAUACAGAAGGAGCGUCACAUAAGACAGGUAGGUCGCUGUUAUUUCAUACUGUUAUAUCCUCUA [JR_Nu_ExcArginiA_Sub029]: 56.2
CGUUAAGAAUCGGCCGCCACUCCAUACGUGUGAAUCGCGGAUCGACAUGAGGAUCACCCAUGUCGGAGGACCGGGAUCCUCUUUC [theeternabot_sameState_MS2_Trp_B_12]: 49.2
GUUAGAUCAAAAGAUUUAACAGUGGGUGAACGAGGACCGGUACGGCCGCCACUCGGACAUGAGGAUCACCCAUGUCCAUGUGAAA [AstrosExyTryA#16]: 15.2

Let us move to another entry and its apparent KD of MS2 coat protein.
Write down apparent KD of MS2 coat protein measured for item UGCUGACAAGGACAUGGAUGAUCAGCUGAUACCAGCCUGGAAACAGGCCCUUGGCAGCAGCACAUGAGGAUCACCCAUGUAAUAA [(T)'-(M)'-(T1)-(T2)-(M1)-(M2)_Design3(Mismatches)]
78.1

----------
test system: MS2 coat protein; assay: apparent KD of MS2 coat protein; designed switch direction (-1 OFF switch, 1 ON switch): 1; higher = weaker reporter binding; settings: input ligand: none
assay.readout: apparent KD of MS2 coat protein (nM)
Give just the number in nM; leave the unit off.

UGUUGUAUUACAGGAUAUCUAGCAUUUUUAUUUAGAGAAGGGUAUUCACAUGAGGAUCACCCAUGUAUAUACGAGGAAGUUGUG [JMF's solution 32] (Eterna round: R96, puzzle: Same State NG 1): 51.9

Write down apparent KD of MS2 coat protein measured for item GUACUCAUGUAAGGAUAUGCAGCCGUUUCGGCUGCAGAAGGUACUAUAAUACAUGAGGAUCACCCAUGUCUCUAUAAUUUGGUG [salish99_SSNG1_r04_902] (Eterna round: R96, puzzle: Same State NG 1)
132

----------
test system: MS2 coat protein; experiment: apparent KD of MS2 coat protein; designed switch direction (-1 OFF switch, 1 ON switch): -1; higher = weaker reporter binding; conditions: input ligand: FMN 200 uM
assay.readout: apparent KD of MS2 coat protein
Mention the unit after the number when you answer.

Solved cases below.
CUUAAGUUAGGAUAUGCGCUACGGAAUCGUGGUUAUAGAUAGCAGAAGGAACUUGAGGAUCACCCAAGUAAAUA [Reerored] (Eterna round: R97, puzzle: Exclusion 4): 116 nM
GCACGGAUGGUAGGAUAUCUGUGCGAUUAGCUCAGAGAAGGACCACAUGAGGAUCACCCAUGUACCUCAAUUAGCCUUCCGUGC [Eli exng1 - 019] (Eterna round: R96, puzzle: Exclusion NG 1): 14.8 nM
UAACAUGUAGAAGGAUAUCUGCACGAUUAGUGCAGAGAAGGUCUAACAUGAGGAUCACCCAUGUAGAUCAUUAAUUAAUUAAUU [ENG1/8-B1] (Eterna round: R96, puzzle: Exclusion NG 1): 15.2 nM

Write down apparent KD of MS2 coat protein measured for item UGAGUGCUGCGAGGAUAUACAUGAGGAUCACCCAUGUUUACCUGUGAGGCAAAGCCUCACAGGUUGUAGAAGGCGCAGUACUCU [Mat - Exclusion NG 2 - Mod of JL - D41] (Eterna round: R96, puzzle: Exclusion NG 2)
16 nM

Write down apparent KD of MS2 coat protein measured for item AAAUAAAAACAAGCAAAACACAUGAGGAUCACCCAUGUAAAGGGUGAAGUUCGCACCCAAAAAUAAAAUAAAUAAAA [another turnoff var 1st] (Eterna round: R96, puzzle: Sensor v2, turn-off variant)
26.7 nM

----------
test system: MS2 coat protein; assay: apparent KD of MS2 coat protein, switch ON state; designed switch direction (-1 OFF switch, 1 ON switch): 1; higher = weaker reporter binding; conditions: FMN input: 0 or 200 uM; Eterna round: R93 (includes R88 designs)
Measured apparent KD of MS2 coat protein by item

Solved cases below.
AAGAAACAUGAGGAUCACCCAUGUAGAAAUAUGGGAGGAUAUACGAAGACGAAAGUCAAAGUAGAAGGCCUAAAGA [Mat - Same State 1 - Eli mod - D106]: 20.3 nM
AGGAAACAUGAGGAUCACCCAUGUAAAAAUAUGGGAGGAUAUACGAAAAAAAAAAAAAAAGUAGAAGGCCUAAAAG [Garnet 10]: 101 nM

Let us move to another entry and its apparent KD of MS2 coat protein.
Write down apparent KD of MS2 coat protein measured for item AACGAACAUGAGGAUCACCCAUGUUCCAACAGUUGAGGAUAUGUGGGUGAAAAUAGCACGGCAGAAGGCGAGUGUA [SameState1 Malc#21]
70.2 nM

----------
Measured apparent KD of MS2 coat protein by item
tested on: MS2 coat protein; assay: apparent KD of MS2 coat protein, switch OFF state (with FMN for OFF switches, without FMN for ON switches); designed switch direction (-1 OFF switch, 1 ON switch): -1; higher = weaker reporter binding; conditions: FMN input: 0 or 200 uM; Eterna round: R93 (includes R88 designs)
Give just the number in nM; leave the unit off.

Solved cases below.
AAAAAGUGAGGAUAUAUAUGAAACAAAAAGAAAAAAAAAAAACAUGAGGAUCACCCAUGUAGAAGGCGCAAAAA ['Exclusion 2' Lab]: 21.5
AACAAACAUGAGGAUCACCCAUGUGAGGAUAUCGAAACAACAAACAACAAACAACAAACGAGAAGGCGCAACAA [e1-2]: 17.3
AAAACGGCAGGAUAUACAGAAGAGAUCACGAAAAAAAAAAAACAUGAGGAUCACCCAUGUAGAAGGGCCAAAAA [Ex2 Malc#4]: 66.3
AGGGAACAUGAGGAUCACCCAUGUGAGGAUAUAGAAAAGAAAAGAAAAGAAAGAAGAACUAGAAGGUACAAGAA [Merenre Nemtyemsaf I]: 30
GGGUAACAUGAGGAUCACCCAUGUGAGGAUAUGCUAGGGAUGGAAGCCAGGCCAAAAAGCAGAAGGUACUAAAG [Janelle Amethyst 18 Mod 16 - Jieux - Exclusion 1]: 34.3

Let us move to another entry and its apparent KD of MS2 coat protein.
Write down apparent KD of MS2 coat protein measured for item GAAACACAUGAGGAUCACCCAUGUCAGGAUAUGUAGAUAAAAAGAAAAUAAAAUAAAAGCAGAAGGGACAAAAG [Mat - Same state - Mayanna Mod - D104]
29.4

----------
test system: MS2 coat protein; experiment: apparent KD of MS2 coat protein; designed switch direction (-1 OFF switch, 1 ON switch): -1; higher = weaker reporter binding; settings: input ligand: FMN 200 uM
assay.readout: apparent KD of MS2 coat protein (nM)
Give just the number in nM; leave the unit off.

Solved cases below.
GGCGCCUCAGGAUAUCAGUCUGGAUCAGAAAAGAUCCUGACUGAGAAGGGACAUGAGGAUCACCCAUGUUCGCC [Mat - Exclusion 4 - Eli Mod - D52] (Eterna round: R97, puzzle: Exclusion 4): 17.3
CGACCCAUCAUAGGAUAUCACAGCACGGGAGAAAGUCUGAGGCGUCAACAUGAGGAUCACCCAUGUGAGAAGGAUGGUGGGCAG [Eternabot solution 17] (Eterna round: R96, puzzle: Exclusion NG 2): 120
GAGUAGUAAGGAUAUGUCUCUGGUGGCUACGGUCACUAGAGGCAGAAGGUACAUGAGGAUCACCCAUGUUCCUC [ExDelusion 8 - Jieux - Exclusion 4] (Eterna round: R97, puzzle: Exclusion 4): 186
UGAAUGUCAGGAUAUCGUGCAUACAACGAAAGUUCUAUGUGCGAGAAGGGACAUGAGGAUCACCCAUGUCUUCG [Omei Ex4 A15] (Eterna round: R97, puzzle: Exclusion 4): 50.7
AUCAUGUUAGGAUAUUACGACGCAGCGGGUAGCCCGUAAAGUAAGAAGGAACAUGAGGAUCACCCAUGUUCAAA [EX4 B.22] (Eterna round: R97, puzzle: Exclusion 4): 32.8

Let us move to another entry and its apparent KD of MS2 coat protein.
Write down apparent KD of MS2 coat protein measured for item UGUUGUUACGCAGGAUAUGAGGAUCACCCAUAUUAGGAUAUCGAAAGAGAAGUUCUGAGGAUCACCCAGAAGGGCGGGUUAACA [pwkr exNG2 2xF5 2xFMN.35] (Eterna round: R96, puzzle: Exclusion NG 2)
117
